# Tested on: T. cruzi intracellular amastigotes in H9c2 cells
# assay-notes: Rate-of-Kill (RoK) high-content imaging assay, amastigotes per cell (AM/CELL) and curve descriptors
# Format: cell-based, Trypanosoma cruzi
# assay-context: at MCC50
# reported t50%_MCC50; entries follow
Could you kindly put the unit after your number?

molecule	endpoint-result
CCCc1nc2nc(N)nc(N)c2cc1CC	48.0 h

Sure, the documented t50%_MCC50 for `COc1ccc(S(=O)(=O)Nc2ccccc2OC)cc1NC(=O)CCCc1c[nH]c2ccccc12` is 72.0 h

Please fill in: t50%_MCC50 reported for `COc1ccccc1-c1c(C)[nH]c2nc(N)nc(C)c12` = 52.8 h

The recorded t50%_MCC50 for entry CC(C)N(C(=O)CN1C(=O)C(N)C(=O)N(c2ccccc2)c2ccccc21)c1ccccc1 (stereo not shown) equals 72.0 h
